The values you see were collected from ChEMBL document CHEMBL4665730.

// values below are reported EC50
biological target: Somatostatin receptor type 2 (Homo sapiens, UniProt P30874); assay: Agonist activity at human SST2 expressed in CHO-K1 cells assessed as reduction in NKH477-induced intracellular cAMP accumulation; type: functional, cell-based; details: cho-k1; read-out: EC50
Sequence (P30874 whole entry): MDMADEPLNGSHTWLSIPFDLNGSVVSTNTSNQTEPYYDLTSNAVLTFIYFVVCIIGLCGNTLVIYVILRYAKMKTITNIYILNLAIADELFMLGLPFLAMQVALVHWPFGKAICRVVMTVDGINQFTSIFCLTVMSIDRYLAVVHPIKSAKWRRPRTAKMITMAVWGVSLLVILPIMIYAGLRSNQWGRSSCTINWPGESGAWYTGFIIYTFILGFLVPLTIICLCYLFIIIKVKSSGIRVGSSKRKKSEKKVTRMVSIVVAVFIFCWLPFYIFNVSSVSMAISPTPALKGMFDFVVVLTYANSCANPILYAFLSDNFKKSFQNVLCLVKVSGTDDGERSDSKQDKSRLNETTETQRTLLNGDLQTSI

Study these solved cases before continuing.
• Cc1cc(C)cc(N2C=Nc3cc(Cl)c(-c4cccc(O)c4)cc3C2C(=O)NC[C@H](C)N)c1 (stereo partly drawn) = > 1000 nM
• Cc1cc(C)cc(N2C=Nc3ccc(-c4cccc(O)c4)cc3C2C(=O)N(C)C[C@H](C)N)c1 (stereo partly drawn) = > 1000 nM

Switching to the query record.
Exercise: Identify the measured EC50 of Cc1cc(Cl)cc(N2C=Nc3cc(C)c(-c4cccc(-c5nnn[nH]5)c4)cc3C2C(=O)N(C)C[C@@H]2CCCN2)c1 (stereo partly drawn) for Somatostatin receptor type 2 (Homo sapiens, UniProt P30874).
Solution: > 1000 nM
